assay: TD Phase (Groups 1 and 3): plasma and ocular tissue concentrations and pharmacokinetics of Compound 18 and its metabolite Compound 4 after once daily ocular instillation of Compound 18 nanosuspension for 7 days
Assay type: in vivo, New Zealand white rabbits
protocol_conditions: male, New Zealand white, rabbit, sclera/choroid, other: ocular instillation (eye drop), 0.798 mg/kg/day, TD Phase, Group 3, 0.5 h, Mean; read-out: Final Compound 4 Sclera/Choroid Conc.
property: concentration at 0.5 h (ng/g)
Answer with a number only, understood to be in ng/g.

Please list concentration at 0.5 h recorded for the compound CCCc1nn(C)c2c(=O)[nH]c(-c3cc(S(=O)(=O)N4CC(CCCO)C4)ccc3OCC)nc12 [Compound 4]
209
